Reported Calculated Dose (equianalgesic dose) by item:
- CONDITION: in comparison to a 15 mg dose of hydrocodone
ATTRIBUTE MEASURED: Calculated Dose (equianalgesic dose) (mg)

>>> experimental_result("COc1ccc2c3c1OC1C(=O)CC[C@H]4[C@@H](C2)N(C)CC[C@]314 (some centres unmarked) [Hydrocodone]")
15.0
>>> experimental_result("COc1ccc2c3c1O[C@H]1[C@@H](O)C=C[C@H]4[C@@H](C2)N(C)CC[C@@]341")
90.0
>>> experimental_result("CCC(=O)C(CC(C)N(C)C)(c1ccccc1)c1ccccc1 (centres unmarked)")
9.0
>>> experimental_result("CN1CC[C@]23CCCC[C@H]2[C@H]1Cc1ccc(O)cc13")
1.8
>>> experimental_result("COc1ccc2c3c1O[C@H]1C(=O)CC[C@@]4(O)[C@@H](C2)N(C)CC[C@]314")
13.5

# credit: patent US10588865B2
